assay_target: D(1A) dopamine receptor (Homo sapiens)
Sequence (P21728 whole entry): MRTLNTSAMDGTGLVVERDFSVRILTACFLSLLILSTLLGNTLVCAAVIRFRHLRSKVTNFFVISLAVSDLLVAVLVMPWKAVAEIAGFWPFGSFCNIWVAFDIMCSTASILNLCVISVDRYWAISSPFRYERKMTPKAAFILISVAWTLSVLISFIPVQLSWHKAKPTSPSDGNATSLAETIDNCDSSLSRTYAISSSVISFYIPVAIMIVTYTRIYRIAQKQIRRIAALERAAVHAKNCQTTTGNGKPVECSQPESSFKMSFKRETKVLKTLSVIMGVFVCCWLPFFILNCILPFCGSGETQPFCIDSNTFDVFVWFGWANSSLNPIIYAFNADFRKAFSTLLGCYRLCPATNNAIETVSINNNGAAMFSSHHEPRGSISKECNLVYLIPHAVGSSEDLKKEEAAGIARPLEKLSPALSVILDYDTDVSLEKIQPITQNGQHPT
experiment: Displacement of [3H]SCH23390 from dopamine D1 receptor expressed in HEK293 cells at 10 uM after 50 mins by beta liquid scintillation counter
Format: cell-based
The compounds listed here are annotated with their inhibition.

compound: CCCNC(=O)Oc1cccc2c1-c1cccc3c1C(C2)N(CCC)CC3 (racemic)
unit_of_measurement: %
inhibition: 26.2
//
compound: CCCN1CCc2cccc3c2[C@H]1Cc1cccc(NC(=O)CCCCC2CCSS2)c1-3 (some centres undefined)
unit_of_measurement: %
inhibition: 27.2
//
compound: CCCN1CCc2cccc3c2C1Cc1cccc(-c2noc(CCCCC4CCSS4)n2)c1-3 (racemic)
unit_of_measurement: %
inhibition: 57
//
compound: CCCN1CCc2cccc3c2[C@H]1Cc1cccc(OC(=O)CCCCC2CCSS2)c1-3 (some centres undefined)
unit_of_measurement: %
inhibition: 55.7

* * *

assay_target: UniProt:P14416
experiment: Displacement of [3H]spiperone from dopamine D2 receptor expressed in HEK293 cells after 50 mins by beta liquid scintillation counter
The molecules listed here are annotated with their Ki.
quantity_kind: Ki (nM)

molecule: CCCN1CCc2cccc3c2[C@H]1Cc1cccc(OC(=O)CCCCC2CCSS2)c1-3 (stereo partly specified)
assay_target: UniProt:P14416
recorded_result: 174
//
molecule: CCCN1CCc2cccc3c2C1Cc1cccc(OC(=O)NC(C)(C)C)c1-3 (racemic)
assay_target: UniProt:P14416
recorded_result: 2800
//
molecule: CCCN1CCc2cccc3c2[C@H]1Cc1cccc(OC(=O)CCCC[C@H]2CCSS2)c1-3
assay_target: UniProt:P14416
recorded_result: 342
//
molecule: CCCN1CCc2cccc3c2C1Cc1cccc(OC(=O)NCc2ccccc2)c1-3 (racemic)
assay_target: UniProt:P14416
recorded_result: 4300
//
molecule: CCCN1CCc2cccc3c2C1Cc1cccc(OC(=O)CSc2ccccc2)c1-3 (racemic)
assay_target: UniProt:P14416
recorded_result: 851
//
molecule: CCCN1CCc2cccc3c2[C@H]1Cc1cccc(OC(=O)CCCC[C@@H]2CCSS2)c1-3
assay_target: UniProt:P14416
recorded_result: 296
//
molecule: CCCN1CCc2cccc3c2[C@H]1Cc1cccc(OC(=O)NCc2ccccc2)c1-3
assay_target: UniProt:P14416
recorded_result: 2200
//
molecule: CCCN1CCc2cccc3c2[C@H]1Cc1cccc(OC(=O)NC(C)(C)C)c1-3
assay_target: UniProt:P14416
recorded_result: 871
//
molecule: CCCN1CCc2cccc3c2[C@H]1Cc1cccc(N)c1-3
assay_target: UniProt:P14416
recorded_result: 352
//
molecule: CCCN1CCc2cccc3c2C1Cc1cccc(OC(=O)Nc2cccc4ccccc24)c1-3 (stereo unspecified)
assay_target: UniProt:P14416
recorded_result: 2000
//
molecule: CCCC(=O)Oc1cccc2c1-c1cccc3c1[C@@H](C2)N(CCC)CC3
assay_target: UniProt:P14416
recorded_result: 55.5

* * *

The molecules listed here are annotated with their inhibition.
assay_target: 5-hydroxytryptamine receptor 2A (Homo sapiens)
Sequence (P28223 whole entry): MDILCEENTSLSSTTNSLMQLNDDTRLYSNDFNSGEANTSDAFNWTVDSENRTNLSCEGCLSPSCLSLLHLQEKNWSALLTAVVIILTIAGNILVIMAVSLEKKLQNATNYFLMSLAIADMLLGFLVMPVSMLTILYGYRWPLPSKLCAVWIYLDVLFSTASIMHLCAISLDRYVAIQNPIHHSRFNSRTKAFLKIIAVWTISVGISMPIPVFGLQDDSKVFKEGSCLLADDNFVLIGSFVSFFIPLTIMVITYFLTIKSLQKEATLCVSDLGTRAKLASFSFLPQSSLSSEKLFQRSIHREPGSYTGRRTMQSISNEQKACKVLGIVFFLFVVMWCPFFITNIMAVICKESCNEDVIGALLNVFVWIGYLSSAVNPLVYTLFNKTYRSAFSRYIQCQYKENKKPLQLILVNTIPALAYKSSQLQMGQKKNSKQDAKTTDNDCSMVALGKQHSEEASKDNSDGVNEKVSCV
experiment: Displacement of [3H]ketanserin from 5-HT2A receptor expressed in CHO cells at 10 uM after 50 mins by beta liquid scintillation counter
Assay type: cell-based

molecule: CCCN1CCc2cccc3c2C1Cc1cccc(OC(=O)Nc2cccc4ccccc24)c1-3 (stereo not given)
assay_target: 5-hydroxytryptamine receptor 2A (Homo sapiens)
unit_of_measurement: %
inhibition: 21.7
--
molecule: CCCN1CCc2cccc3c2C1Cc1cccc(OC(=O)NC(C)(C)C)c1-3 (racemic)
assay_target: 5-hydroxytryptamine receptor 2A (Homo sapiens)
unit_of_measurement: %
inhibition: 20
--
molecule: CCCCNC(=O)Oc1cccc2c1-c1cccc3c1[C@@H](C2)N(CCC)CC3
assay_target: 5-hydroxytryptamine receptor 2A (Homo sapiens)
unit_of_measurement: %
inhibition: 34.9
--
molecule: CCCN1CCc2cccc3c2[C@H]1Cc1cccc(NC(=O)CCCCC2CCSS2)c1-3 (stereo not given in full)
assay_target: 5-hydroxytryptamine receptor 2A (Homo sapiens)
unit_of_measurement: %
inhibition: 36.9
--
molecule: CCCN1CCc2cccc3c2C1Cc1cccc(O)c1-3 (racemic)
assay_target: 5-hydroxytryptamine receptor 2A (Homo sapiens)
unit_of_measurement: %
inhibition: 14.1
--
molecule: CCCN1CCc2cccc3c2[C@H]1Cc1cccc(O)c1-3
assay_target: 5-hydroxytryptamine receptor 2A (Homo sapiens)
unit_of_measurement: %
inhibition: 63
--
molecule: CCCC(=O)Oc1cccc2c1-c1cccc3c1[C@@H](C2)N(CCC)CC3
assay_target: 5-hydroxytryptamine receptor 2A (Homo sapiens)
unit_of_measurement: %
inhibition: 68
--
molecule: CCCN1CCc2cccc3c2[C@H]1Cc1cccc(OC(=O)NCC)c1-3
assay_target: 5-hydroxytryptamine receptor 2A (Homo sapiens)
unit_of_measurement: %
inhibition: 14.5
--
molecule: CCCC(=O)Nc1cccc2c1-c1cccc3c1[C@@H](C2)N(CCC)CC3
assay_target: 5-hydroxytryptamine receptor 2A (Homo sapiens)
unit_of_measurement: %
inhibition: 16.6
--
molecule: CCCN1CCc2cccc3c2[C@H]1Cc1cccc(OC(=O)NCc2ccccc2)c1-3
assay_target: 5-hydroxytryptamine receptor 2A (Homo sapiens)
unit_of_measurement: %
inhibition: 76.6

* * *

assay_target: D(2) dopamine receptor (Homo sapiens, UniProt P14416)
Sequence (P14416 whole entry): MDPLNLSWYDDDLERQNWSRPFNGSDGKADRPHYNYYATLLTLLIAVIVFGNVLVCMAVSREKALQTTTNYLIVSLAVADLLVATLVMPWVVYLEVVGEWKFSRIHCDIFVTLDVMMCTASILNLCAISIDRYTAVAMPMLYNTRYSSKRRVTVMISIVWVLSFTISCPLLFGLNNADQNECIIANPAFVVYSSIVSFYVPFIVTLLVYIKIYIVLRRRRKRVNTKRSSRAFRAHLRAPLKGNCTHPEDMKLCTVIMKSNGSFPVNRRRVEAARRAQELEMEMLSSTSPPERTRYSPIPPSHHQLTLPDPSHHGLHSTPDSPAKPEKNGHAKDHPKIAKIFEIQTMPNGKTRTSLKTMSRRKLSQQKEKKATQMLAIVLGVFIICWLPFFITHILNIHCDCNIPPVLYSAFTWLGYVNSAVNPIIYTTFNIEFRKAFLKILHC
experiment: Agonist activity at dopamine D2 receptor expressed in HEK293 cells assessed as stimulation of [35S]GTPgammaS binding after 30 mins

molecule: CCCN1CCc2cccc3c2[C@H]1Cc1cccc(OC(=O)CCCCC2CCSS2)c1-3 (stereo partly specified)
EC50, nM: 320

* * *

assay_target: UniProt:P25100
Sequence (P25100 whole entry): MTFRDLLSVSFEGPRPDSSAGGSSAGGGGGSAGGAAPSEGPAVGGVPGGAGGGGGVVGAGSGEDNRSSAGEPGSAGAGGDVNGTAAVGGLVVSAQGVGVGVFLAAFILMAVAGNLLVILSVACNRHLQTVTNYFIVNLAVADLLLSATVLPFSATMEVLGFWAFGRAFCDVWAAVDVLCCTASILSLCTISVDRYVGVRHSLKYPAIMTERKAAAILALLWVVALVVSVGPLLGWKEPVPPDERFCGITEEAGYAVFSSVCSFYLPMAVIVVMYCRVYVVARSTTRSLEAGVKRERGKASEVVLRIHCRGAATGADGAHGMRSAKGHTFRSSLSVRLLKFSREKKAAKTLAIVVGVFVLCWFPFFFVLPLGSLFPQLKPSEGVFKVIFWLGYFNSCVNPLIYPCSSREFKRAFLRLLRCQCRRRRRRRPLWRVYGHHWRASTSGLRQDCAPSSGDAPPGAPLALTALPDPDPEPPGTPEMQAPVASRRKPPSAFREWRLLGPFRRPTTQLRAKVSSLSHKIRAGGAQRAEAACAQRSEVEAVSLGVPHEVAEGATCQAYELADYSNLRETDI
experiment: Antagonist activity at adrenergic Alpha-1D receptor expressed in HEK293 cells co-transfected with Galpha16 assessed as inhibition of adrenaline-induced intracellular calcium after 3 to 5 mins by Fluo-4/AM assay

compound: CCCN1CCc2cccc3c2[C@H]1Cc1cccc(OC(=O)CCCCC2CCSS2)c1-3 (stereo partly specified)
IC50: > 10 µM

* * *

assay_target: Alpha-1A adrenergic receptor (Homo sapiens, UniProt P35348)
Sequence (P35348 whole entry): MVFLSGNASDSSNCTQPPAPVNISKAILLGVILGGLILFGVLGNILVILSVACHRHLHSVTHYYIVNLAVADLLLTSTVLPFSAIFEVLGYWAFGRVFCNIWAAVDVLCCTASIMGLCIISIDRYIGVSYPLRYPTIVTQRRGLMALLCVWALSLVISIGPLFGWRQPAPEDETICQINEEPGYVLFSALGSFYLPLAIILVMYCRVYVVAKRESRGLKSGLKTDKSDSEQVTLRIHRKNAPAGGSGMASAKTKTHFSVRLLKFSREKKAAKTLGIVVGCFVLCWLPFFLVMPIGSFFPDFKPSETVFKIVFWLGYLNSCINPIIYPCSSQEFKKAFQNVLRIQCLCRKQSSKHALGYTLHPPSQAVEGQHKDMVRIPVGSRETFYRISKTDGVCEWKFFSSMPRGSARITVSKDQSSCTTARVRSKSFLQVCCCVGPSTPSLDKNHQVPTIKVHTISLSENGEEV
experiment: Antagonist activity at adrenergic alpha1A receptor expressed in CHO cells assessed as inhibition of adrenaline-induced intracellular calcium level after 3 to 5 mins by Fluo-4/AM assay

compound: CCCN1CCc2cccc3c2[C@H]1Cc1cccc(OC(=O)CCCCC2CCSS2)c1-3 (stereo partly specified)
IC50: > 10 µM

* * *

assay_target: UniProt:P07550
Sequence (P07550 whole entry): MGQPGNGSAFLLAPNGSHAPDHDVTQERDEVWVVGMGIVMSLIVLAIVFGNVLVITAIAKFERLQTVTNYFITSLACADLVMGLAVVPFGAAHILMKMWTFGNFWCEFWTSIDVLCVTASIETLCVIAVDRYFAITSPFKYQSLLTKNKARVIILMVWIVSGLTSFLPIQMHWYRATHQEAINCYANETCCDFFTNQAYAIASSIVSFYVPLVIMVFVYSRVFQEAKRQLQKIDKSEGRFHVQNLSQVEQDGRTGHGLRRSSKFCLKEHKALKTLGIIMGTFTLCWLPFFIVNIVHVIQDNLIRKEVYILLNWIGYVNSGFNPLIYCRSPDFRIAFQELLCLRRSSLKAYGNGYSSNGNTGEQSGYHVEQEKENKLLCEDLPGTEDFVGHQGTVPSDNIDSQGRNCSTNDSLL
experiment: Antagonist activity at adrenergic beta2 receptor expressed in HEK293 cells co-transfected with Galpha16 assessed as inhibition of adrenaline-induced intracellular calcium after 3 to 5 mins by Fluo-4/AM assay
Format: functional, cell-based
pIC50: −log10 of the molar value.

compound: CCCN1CCc2cccc3c2[C@H]1Cc1cccc(OC(=O)CCCCC2CCSS2)c1-3 (stereo partly specified)
assay_target: UniProt:P07550
pIC50: < 5.00

* * *

assay_target: UniProtKB P35368
Sequence (P35368 whole entry): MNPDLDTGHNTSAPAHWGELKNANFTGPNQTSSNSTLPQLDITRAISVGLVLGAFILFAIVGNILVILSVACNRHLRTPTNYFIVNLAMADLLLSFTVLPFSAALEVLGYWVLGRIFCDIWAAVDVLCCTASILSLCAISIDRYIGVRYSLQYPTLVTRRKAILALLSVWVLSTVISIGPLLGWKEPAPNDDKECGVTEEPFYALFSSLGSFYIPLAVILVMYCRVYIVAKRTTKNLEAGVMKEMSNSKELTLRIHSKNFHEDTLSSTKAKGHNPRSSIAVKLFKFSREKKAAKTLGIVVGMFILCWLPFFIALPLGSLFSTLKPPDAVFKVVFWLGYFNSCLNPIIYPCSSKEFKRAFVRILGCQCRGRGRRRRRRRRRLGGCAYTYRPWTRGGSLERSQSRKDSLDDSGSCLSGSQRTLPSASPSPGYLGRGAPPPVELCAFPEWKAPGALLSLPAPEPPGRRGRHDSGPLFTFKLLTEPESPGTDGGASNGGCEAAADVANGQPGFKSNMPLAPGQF
experiment: Antagonist activity at adrenergic Alpha-1B receptor expressed in CHO cells assessed as inhibition of adrenaline-induced intracellular calcium after 3 to 5 mins by Fluo-4/AM assay

compound: CCCN1CCc2cccc3c2[C@H]1Cc1cccc(OC(=O)CCCCC2CCSS2)c1-3 (stereo partly specified)
IC50: > 10 µM

* * *

assay_target: D(2) dopamine receptor (Homo sapiens, UniProt P14416)
experiment: Displacement of [3H]spiperone from dopamine D2 receptor expressed in HEK293 cells at 10 uM after 50 mins by beta liquid scintillation counter
Format: cell-based
The compounds listed here are annotated with their inhibition.

compound: CCCN1CCc2cccc3c2C1Cc1cccc(OC(=O)CCCCC2CCSS2)c1-3 (racemic)
assay_target: D(2) dopamine receptor (Homo sapiens, UniProt P14416)
inhibition (%): 55.2
--
compound: CCCCNC(=O)Oc1cccc2c1-c1cccc3c1[C@@H](C2)N(CCC)CC3
assay_target: D(2) dopamine receptor (Homo sapiens, UniProt P14416)
inhibition (%): 40.9
--
compound: CCCNC(=O)Oc1cccc2c1-c1cccc3c1[C@@H](C2)N(CCC)CC3
assay_target: D(2) dopamine receptor (Homo sapiens, UniProt P14416)
inhibition (%): 50.9
--
compound: CCCCNC(=O)Oc1cccc2c1-c1cccc3c1C(C2)N(CCC)CC3 (racemic)
assay_target: D(2) dopamine receptor (Homo sapiens, UniProt P14416)
inhibition (%): 53.2
--
compound: CCCN1CCc2cccc3c2[C@H]1Cc1cccc(OC(=O)NCC)c1-3
assay_target: D(2) dopamine receptor (Homo sapiens, UniProt P14416)
inhibition (%): 44.3
--
compound: CCCN1CCc2cccc3c2C1Cc1cccc(CNC(=S)CCCCC2CCSS2)c1-3 (racemic)
assay_target: D(2) dopamine receptor (Homo sapiens, UniProt P14416)
inhibition (%): 3.1
--
compound: CCCC(=O)Nc1cccc2c1-c1cccc3c1[C@@H](C2)N(CCC)CC3
assay_target: D(2) dopamine receptor (Homo sapiens, UniProt P14416)
inhibition (%): 13.5
--
compound: CCCN1CCc2cccc3c2C1Cc1cccc(CNC(=O)NCC)c1-3 (racemic)
assay_target: D(2) dopamine receptor (Homo sapiens, UniProt P14416)
inhibition (%): 15.7
--
compound: CCCN1CCc2cccc3c2C1Cc1cccc(OC(=O)NCC)c1-3 (racemic)
assay_target: D(2) dopamine receptor (Homo sapiens, UniProt P14416)
inhibition (%): 56.7
--
compound: CCCN1CCc2cccc3c2C1Cc1cccc(-c2noc(CCCCC4CCSS4)n2)c1-3 (racemic)
assay_target: D(2) dopamine receptor (Homo sapiens, UniProt P14416)
inhibition (%): 19.5
--
compound: CCCN1CCc2cccc3c2C1Cc1cccc(CNC(=O)CCCCC2CCSS2)c1-3 (racemic)
assay_target: D(2) dopamine receptor (Homo sapiens, UniProt P14416)
inhibition (%): 9.6
--
compound: CCCNC(=O)Oc1cccc2c1-c1cccc3c1C(C2)N(CCC)CC3 (racemic)
assay_target: D(2) dopamine receptor (Homo sapiens, UniProt P14416)
inhibition (%): 52.7
--
compound: CCCN1CCc2cccc3c2[C@H]1Cc1cccc(NC(=O)CCCCC2CCSS2)c1-3 (stereo partly drawn)
assay_target: D(2) dopamine receptor (Homo sapiens, UniProt P14416)
inhibition (%): 33.1
